Origin of values: PubChem BioAssay AID1159585

- TARGET_DESC: Calcium-dependent protein kinase 1 (Plasmodium falciparum (isolate 3D7)) (UniProt P62344)
- Sequence (P62344 whole entry, looked up): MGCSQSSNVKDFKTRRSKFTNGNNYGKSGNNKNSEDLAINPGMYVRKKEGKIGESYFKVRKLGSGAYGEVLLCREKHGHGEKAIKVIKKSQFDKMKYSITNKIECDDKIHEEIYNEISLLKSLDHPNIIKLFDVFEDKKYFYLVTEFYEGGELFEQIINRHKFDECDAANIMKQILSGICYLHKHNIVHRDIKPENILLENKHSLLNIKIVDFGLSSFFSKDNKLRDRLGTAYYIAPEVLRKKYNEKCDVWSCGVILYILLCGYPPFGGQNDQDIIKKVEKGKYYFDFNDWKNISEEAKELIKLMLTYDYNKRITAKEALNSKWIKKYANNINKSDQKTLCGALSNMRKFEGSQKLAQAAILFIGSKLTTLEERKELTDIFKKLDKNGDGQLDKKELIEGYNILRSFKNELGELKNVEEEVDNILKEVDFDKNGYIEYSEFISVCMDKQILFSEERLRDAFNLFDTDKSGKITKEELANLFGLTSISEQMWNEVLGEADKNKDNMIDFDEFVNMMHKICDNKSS
- TEST_NAME: PfCDPK1 kinase inhibitors, biochemical, TCAMS library (AID 1159585);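 note: inhibitors leave more ATP so luminescence rises with inhibition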
- MEASUREMENT_SETUP: recombinant PfCDPK1, Kinase-Glo ATP depletion luminescence
PARAMETER_MEASURED: IC50

Sample answers from the record:
| SMILES_STRUCTURE | IC50 |
| --- | --- |
| Oc1cccc(Nc2ccnc3cc(-c4nccs4)ccc23)c1 | 997 nM |
| NCC1(c2nc(-c3ccc(Cl)c(O)c3)c(-c3ccncc3)[nH]2)CCCCC1 | 14 nM |
| NS(=O)(=O)c1ccc(Nc2nccc(-c3c(-c4cccc(NC(=O)c5c(F)cccc5F)c4)nn4ccccc34)n2)cc1 | 48 nM |
| CN1CCN(Cc2cccc(Nc3nccc(Nc4ccc(Oc5ccccc5)cc4)n3)c2)CC1 | 801 nM |

IC50 for Calcium-dependent protein kinase 1 (Plasmodium falciparum (isolate 3D7)) (UniProt P62344) with input `CN(C)CCNCc1nc(-c2ccc3c(Nc4ccc(Oc5ccccc5)cc4)ccnc3c2)cs1` equals 887 nM

Measured IC50 (Calcium-dependent protein kinase 1 (Plasmodium falciparum (isolate 3D7)) (UniProt P62344)), entry `Cc1cccc2[nH]c(-c3cc(-c4cn[nH]c4)cnc3N)nc12` : 296 nM

Assay Calcium-dependent protein kinase 1 (Plasmodium falciparum (isolate 3D7)) (UniProt P62344), sample `COc1ccc(C(=O)NCC(C)(C)c2nc(-c3ccc(Cl)c(O)c3)c(-c3ccncc3)[nH]2)cc1OCCN(C(C)C)C(C)C` , IC50 read: 387 nM

# lookup: `CC(C)(CNC(=O)[C@@H]1CCCCN1)c1nc(-c2ccc(Cl)c(O)c2)c(-c2ccncc2)[nH]1` on Calcium-dependent protein kinase 1 (Plasmodium falciparum (isolate 3D7)) (UniProt P62344), IC50 = 192 nM
